Source: paper PMC10510102

molecular target: BCL6 (Homo sapiens, UniProt P41182, C67R/C84N/C8Q); construct: hBCL6-Flag-6H-Avi 3Cmut (5–129) produced as part of the GSK/GenScript collaboration; Flag (C); 6H (His6) (C); Avi (C); test: Kinetic analyses of covalent modification, intact protein LC-MS; conditions: 0.5 μM BCL6; 5-100 μM SF; 4 °C
Measured Property: pKi
// pKi is dimensionless: -log10 of concentration (M)

- CC(=O)Nc1cccc(CNC(=O)Cc2ccc(S(=O)(=O)F)cc2)c1: 4.10

For the next question, use this molecule.
Query :: Write down the reported pKi of CN(C)C(=O)Nc1cccc(CNC(=O)Cc2ccc(S(=O)(=O)F)cc2)c1 , test system: BCL6 (Homo sapiens, UniProt P41182, C67R/C84N/C8Q).
Result :: 4.25

----------
biological target: CAII (Homo sapiens); assay: Kinetic analyses of covalent modification, intact protein LC-MS; conditions: 0.5 μM CAII; 5-100 μM SF; 0-24 h; 20 °C
Measured Property: Ki

- NS(=O)(=O)c1ccc(CCNC(=O)Cc2ccc(S(=O)(=O)F)cc2)cc1 [2e]: < 5 µM

Query :: Item NS(=O)(=O)c1cccc(CNC(=O)Cc2ccc(S(=O)(=O)F)cc2)c1 [2d] has what recorded Ki?
Result :: < 5 µM

----------
Collected Tm values appear next to each entry.
target: BCL6 BTB/POZ domain (Homo sapiens, UniProt P41182, C67R/C84N/C8Q); assay: Conventional differential scanning fluorimetry (DSF); type: binding; design: hBCL6-Flag 3Cmut (5-129) produced in house; FLAG (C); made in house; details: 10 μM protein; covalent complex (500 μM SF, 6 or 24 h) or 200 μM GSK137; mean ± SD, three replicates
All answers are understood in °C, so give the number only.

Query :: Write down the reported Tm of CN(C)C(=O)Nc1cccc(CNC(=O)Cc2ccc(S(=O)(=O)F)cc2)c1 , test system: BCL6 BTB/POZ domain (Homo sapiens, UniProt P41182, C67R/C84N/C8Q).
Result :: 66.6

Query :: Write down the reported Tm of O=C(Cc1ccc(S(=O)(=O)F)cc1)N1CC(Oc2ccc(F)c(F)c2)C1 , test system: BCL6 BTB/POZ domain (Homo sapiens, UniProt P41182, C67R/C84N/C8Q).
Result :: 55.5

Query :: Write down the reported Tm of NC(=O)c1ccccc1OC1CN(C(=O)Cc2ccc(S(=O)(=O)F)cc2)C1 , test system: BCL6 BTB/POZ domain (Homo sapiens, UniProt P41182, C67R/C84N/C8Q).
Result :: 59.9

Query :: Write down the reported Tm of CC(=O)Nc1cccc(CNC(=O)Cc2ccc(S(=O)(=O)F)cc2)c1 , test system: BCL6 BTB/POZ domain (Homo sapiens, UniProt P41182, C67R/C84N/C8Q).
Result :: 70.4
